// data source = patent US20250304567A1

Reported pIC50 values follow for various molecules
Tested on: p-IKKa levels in L363 (NIK translocated multiple myeloma) cells
Experiment: Effect of compounds on p-IKKa levels in L363 (NIK translocated multiple myeloma) cells (AlphaLISA SureFire Ultra p-IKKa Ser176/180)
Assay type: cell-based, human
Conditions: p-IKKa levels in L363 cells; average if tested more than once; read-out: Assay 2 IC50
Experimental: Assay 2: Effect of Compounds on p-IKKa Levels in L363 (NIK Translocated Multiple Myeloma) Cells All compounds tested were dissolved and serially diluted in DMSO, 1:3 dilution for 11 points in an Echo compatible plate. 100% DMSO was added to columns 12 and 24 of the plate to serve as high and low signal controls. This compound plate was used to spot 20 nL of compound or DMSO into a Greiner 384 well TC plate (781080). The final DMSO concentration was 0.3% (v/v) in cell assays. […]
pIC50: −log10 of the molar value.
test-readout: pIC50

INSERT INTO assay_data (molecule, test_readout, value_observed) VALUES
  ('CC(Nc1nccc(-c2nc(-c3cccc(C4(O)CCN(C)C4=O)c3)cs2)n1)c1cc[nH]n1 (single isomer, unassigned) [Example 42]', 'pIC50', '< 6.30'),
  ('CN1CCC(O)(c2cc(F)cc(-c3csc(-c4ccnc(Nc5ccn(C)n5)n4)n3)c2)C1=O (single isomer, unassigned) [Example 26]', 'pIC50', '< 6.30'),
  ('CN1CCC(O)(c2ccc(F)c(-c3csc(-c4ccnc(Nc5ccn(C)n5)n4)n3)c2)C1=O (single isomer, unassigned) [Example 28]', 'pIC50', '> 7.00'),
  ('CC(Nc1nccc(-c2nc(-c3cccc(C4(O)CCN(C)C4=O)c3)cs2)n1)c1cnn(C)c1 (single isomer, unassigned) [Example 39]', 'pIC50', '> 7.00'),
  ('CN1CC(F)(F)C(O)(c2cccc(-c3nc(-c4ccnc(Nc5ccn(C)n5)n4)cs3)c2)C1=O (single isomer, unassigned) [Example 36]', 'pIC50', '6.30 to 7.00'),
  ('CN1CCC(O)(c2ccnc(-c3nc(-c4ccnc(Nc5ccn(C)n5)n4)cs3)c2)C1=O (single isomer, unassigned) [Example 34]', 'pIC50', '6.30 to 7.00');

====

Test system: p-IKKa levels in L363 (NIK translocated multiple myeloma) cells
Assay: Effect of compounds on p-IKKa levels in L363 (NIK translocated multiple myeloma) cells (AlphaLISA SureFire Ultra p-IKKa Ser176/180)
Type: cell-based, human
Settings: Homo sapiens, L-363, p-IKKa levels in L363 cells; average if tested more than once; read-out: Assay 2 IC50
test-readout: IC50

INSERT INTO measurements (compound, test_readout, value_observed) VALUES
  ('CN1CC[C@@](O)(c2cccc(-c3nc(-c4ccnc(Nc5cn(CCF)cn5)n4)cs3)c2)C1=O [Example 117]', 'IC50', '100 to 500 nM'),
  ('Cc1cnoc1Nc1nccc(-c2csc(-c3cccc([C@]4(O)CCN(C)C4=O)c3)n2)n1 [Example 274]', 'IC50', '> 501 nM'),
  ('CN1CC[C@@](O)(c2cccc(-c3nc(-c4ccnc(Nc5ccnn5CC(F)F)n4)cs3)c2)C1=O [Example 278]', 'IC50', '> 501 nM'),
  ('CN1CC[C@@](O)(c2cccc(-c3nc(-c4ccnc(N[C@H]5C[C@@H](O)C5)n4)cs3)c2)C1=O [Example 180]', 'IC50', '> 501 nM'),
  ('CNc1nccc(-c2csc(-c3cccc([C@]4(O)CCN(C)C4=O)c3)n2)n1 [Example 170]', 'IC50', '> 501 nM'),
  ('Cc1nn(C)cc1CNc1nccc(-c2csc(-c3cccc([C@]4(O)CCN(C)C4=O)c3)n2)n1 [Example 210]', 'IC50', '> 501 nM'),
  ('Cc1cc(CNc2nccc(-c3csc(-c4cccc([C@]5(O)CCN(C)C5=O)c4)n3)n2)nn1C [Example 209]', 'IC50', '> 501 nM'),
  ('CN1CC[C@@](O)(c2cccc(-c3nc(-c4ccnc(Nc5ccn(C(F)(F)F)n5)n4)cs3)c2)C1=O [Example 257]', 'IC50', '> 501 nM'),
  ('CN1CC[C@@](O)(c2cccc(-c3nc(-c4ccnc(Nc5cnn6c5NCCC6)n4)cs3)c2)C1=O [Example 54]', 'IC50', '100 to 500 nM'),
  ('CCn1cc(Nc2nccc(-c3csc(-c4cccc([C@]5(O)CCN(C)C5=O)c4)n3)n2)c(OC)n1 [Example 103]', 'IC50', '100 to 500 nM'),
  ('CC(Nc1nccc(-c2csc(-c3cccc([C@]4(O)CCN(C)C4=O)c3)n2)n1)c1ncco1 (stereo partly drawn) [Example 199]', 'IC50', '> 501 nM'),
  ('CN1CC[C@@](O)(c2ccnc(-c3ccn(-c4ccnc(Nc5ccn(C)n5)n4)n3)c2)C1=O (racemic) [Example 30]', 'IC50', '100 to 500 nM'),
  ('CN(C)C(=O)Cn1ccc(Nc2nccc(-c3csc(-c4cccc([C@]5(O)CCN(C)C5=O)c4)n3)n2)n1 [Example 262]', 'IC50', '> 501 nM'),
  ('CN1CC[C@@](O)(c2cccc(-c3nc(-c4ccnc(Nc5cccnc5OC(F)F)n4)cs3)c2)C1=O [Example 282]', 'IC50', '100 to 500 nM'),
  ('CN1CC[C@@](O)(c2cccc(-c3csc(-c4ccnc(Nc5cnn(CC(C)(C)O)c5)n4)n3)c2)C1=O [Example 89]', 'IC50', '< 100 nM');
